- Protocol Text: in vivo
- Cond: male, Wistar Hannover, rat, po, 10 mg/kg
Readout Kind: Cmax at 4 h (ng/mL)
Numbers only, in ng/mL.

Give the measured Cmax at 4 h of `CC(C)[C@H](NC(=O)C(F)(F)F)C(=O)N1C[C@H]2[C@@H]([C@H]1C(=O)N[C@@H](C[C@@H]1CCNC1=O)C(=O)c1nc3ccccc3s1)C2(C)C` .
521

====

Can you tell me Papp A→B for the items I'm about to list?
- Protocol Text: in vitro
- Cond: dog, MDCK
One number for each entry, in ×10⁻⁶ cm/s.

Give the measured Papp A→B of `CC(C)[C@H](NC(=O)C(F)(F)F)C(=O)N1C[C@H]2[C@@H]([C@H]1C(=O)N[C@@H](C[C@@H]1CCNC1=O)C(=O)c1noc(-c3ccccc3)n1)C2(C)C` .
3.5

# batch size: 8; output Papp A→B per entry
1. COC(=O)N[C@H](C(=O)N1C[C@H]2[C@@H]([C@H]1C(=O)N[C@H](C#N)C[C@@H]1CCNC1=O)C2(C)C)C(C)(C)C
2. COc1cccc2[nH]c(C(=O)N[C@@H](CC(C)(C)C)C(=O)N[C@@H](C[C@@H]3CCNC3=O)C(=O)c3nc4ccccc4s3)cc12
3. CN(C)C(=O)N[C@H](C(=O)N1C[C@H]2[C@@H]([C@H]1C(=O)N[C@H](C#N)C[C@@H]1CCNC1=O)C2(C)C)C(C)(C)C
4. COc1cccc2[nH]c(C(=O)N[C@@H](CC(C)C)C(=O)N[C@H](C#N)C[C@@H]3CCNC3=O)cc12
5. CC(C)[C@H](NC(=O)C(F)(F)F)C(=O)N1C[C@H]2[C@@H]([C@H]1C(=O)N[C@@H](C[C@@H]1CCNC1=O)C(=O)c1noc(C(C)(C)C)n1)C2(C)C
6. CC(C)[C@H](NC(=O)C(F)(F)F)C(=O)N1C[C@H]2[C@@H]([C@H]1C(=O)N[C@@H](C[C@@H]1CCNC1=O)C(=O)c1nc3cc(C(F)(F)F)ccc3s1)C2(C)C
7. CC(=O)N[C@H](C(=O)N1C[C@H]2[C@@H]([C@H]1C(=O)N[C@@H](C[C@@H]1CCNC1=O)C(=O)c1nc3ccccc3s1)C2(C)C)C(C)(C)C
8. COc1cccc2[nH]c(C(=O)N3C[C@H]4[C@@H]([C@H]3C(=O)N[C@@H](C[C@@H]3CCNC3=O)C(=O)c3nc5ccccc5s3)C4(C)C)cc12

0.61
4.3
0.383
0.945
0.5
8.8
0.7
7.3

Give the measured Papp A→B of `CC(C)[C@H](NS(C)(=O)=O)C(=O)N1C[C@H]2[C@@H]([C@H]1C(=O)N[C@@H](C[C@@H]1CCNC1=O)C(=O)c1nc3ccccc3s1)C2(C)C` .
1.7
